Examples of compounds with documented kinase still bound, per cent of control follow.
System: EGFR (human), P00533 [T790M/L858R]
Experiment: KINOMEscan competition binding
Conditions: compound 10.0 µM
Report the figure along with its unit, number first.

cpdSmiles | result
COc1cc2ncnc(-n3nc(-c4ccccn4)nc3N)c2cc1OC | 84%
COc1cc(N2CCN(C)CC2)ccc1Nc1nc(N)c(C(=O)c2c(Cl)cccc2Cl)s1 | 100%
CCN(CC)CCCCNc1ncc2c(n1)N(C)C(=O)N(c1c(Cl)c(OC)cc(OC)c1Cl)C2 | 100%
Cc1cn(-c2cc(C(=O)Nc3ccc(C)c(NC(=O)c4ccno4)c3)cc(C(F)(F)F)c2)cn1 | 100%
COc1ccc(N(C(=O)Oc2c(C)cccc2C)c2ccnc(Nc3ccc(N4CCN(C)CC4)cc3)n2)c(OC)c1 | 14%

From here, focus on the item given below.
May I ask what kinase still bound, per cent of control has been recorded for O=C(NOC[C@H](O)CO)c1ccc(F)c(F)c1Nc1ccc(I)cc1F ? 100%

Numbers sourced from the kinase profiling compilation of Christmann-Franck et al. (2016).
